System tested: Human adrenergic α2B receptor (Homo sapiens)
Sequence (P18089 whole entry): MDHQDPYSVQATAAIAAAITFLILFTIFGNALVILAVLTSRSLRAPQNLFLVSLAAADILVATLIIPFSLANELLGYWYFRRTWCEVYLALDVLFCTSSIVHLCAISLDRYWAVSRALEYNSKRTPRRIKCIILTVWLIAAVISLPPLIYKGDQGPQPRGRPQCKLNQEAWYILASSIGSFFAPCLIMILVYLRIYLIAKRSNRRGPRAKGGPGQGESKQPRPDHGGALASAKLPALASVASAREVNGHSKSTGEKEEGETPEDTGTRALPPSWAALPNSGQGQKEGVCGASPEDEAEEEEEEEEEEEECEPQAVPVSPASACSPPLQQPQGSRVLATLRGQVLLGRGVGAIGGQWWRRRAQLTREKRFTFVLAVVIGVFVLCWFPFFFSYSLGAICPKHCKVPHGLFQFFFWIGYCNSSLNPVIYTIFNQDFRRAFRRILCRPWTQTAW
Measurement description: Radioligand binding, adrenergic α2B (Protocol Group B)
Design: purchased Milipore (Millipore)
Setup conditions: 10 nM compound; Protocol Group B; read-out: Percentage inhibition of ligand binding, Adrenergic α2B (10 nM)
Measured property: inhibition at 0.01 µM (%)

Worked examples, 4 compounds total:
Cc1ccc2c(c1)c1c(n2CC(C)(O)c2ccncc2)CC2CCCN2C1 (single isomer, unassigned) [37a] ... 27
Cc1ccc2c(c1)c1c(n2CC(O)c2ccncc2)CC[N+]2([O-])CCCC12 (stereo not drawn) ... 65
Cc1ccc2c(c1)c1c(n2CC(C)(O)c2cnccc2F)CCN(C)C1 (stereo not drawn) ... 19
Cc1ccc2c(c1)c1c(n2CC(OCC2CCC2)c2ccncc2)CCN2CCCC12 (single isomer, unassigned) [138a] ... 91

P = Cc1cc(F)c2c(c1)c1c(n2CC(C)(O)c2cccnc2)CC2CCCN2C1 (single isomer, unassigned) [61c]
Q = Cc1cc2c3c(n(CC(C)(O)c4ccncc4)c2cc1Cl)CCN1CCCC31 (single isomer, unassigned) [50a]
R = CN1CCc2c(c3c(Cl)ccc(Cl)c3n2CC(O)c2cccnc2)C1 (stereo not drawn)
Ascending by inhibition at 0.01 µM, please. In plain terms: list the labels in the order you were asked to.
R, P, Q
(R: 4%, P: 51%, Q: 95%)

###

System tested: Human adrenergic α1B receptor (Homo sapiens)
Sequence (P35368 1-520): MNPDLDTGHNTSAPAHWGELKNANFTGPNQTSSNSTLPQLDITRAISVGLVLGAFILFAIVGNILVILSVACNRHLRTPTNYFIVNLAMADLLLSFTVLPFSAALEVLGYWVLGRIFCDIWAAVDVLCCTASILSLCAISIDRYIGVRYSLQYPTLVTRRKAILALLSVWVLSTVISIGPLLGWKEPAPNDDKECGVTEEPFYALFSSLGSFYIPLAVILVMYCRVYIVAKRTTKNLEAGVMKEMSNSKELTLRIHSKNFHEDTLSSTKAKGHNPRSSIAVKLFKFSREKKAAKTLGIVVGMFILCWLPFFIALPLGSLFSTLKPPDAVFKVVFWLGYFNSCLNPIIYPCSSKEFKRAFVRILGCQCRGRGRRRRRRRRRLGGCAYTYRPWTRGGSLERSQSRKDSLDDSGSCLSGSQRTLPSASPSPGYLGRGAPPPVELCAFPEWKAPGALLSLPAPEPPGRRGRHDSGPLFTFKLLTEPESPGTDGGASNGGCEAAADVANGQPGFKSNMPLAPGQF
Measurement description: Radioligand binding, adrenergic α1B (Protocol Group B)
Design: purchased Milipore (Millipore)
Setup conditions: 0.1 μM compound; Protocol Group B; 0.1 µM
Measured property: Percentage inhibition of ligand binding, Adrenergic α1B (0.1 μM) (%)

CC(O)(Cn1c2c(c3cc(F)cc(Cl)c31)C1CCCN1CC2)c1cccnc1 (single isomer, unassigned) [89d] ... 15

A = Cc1cc(C)c2c(c1)c1c(n2CC(C)(O)c2ccncc2)CCN2CCCC12 (single isomer, unassigned) [19c]
B = Cc1ccc2c(c1)c1c(n2CC(O)c2cccnc2)CC2CCCN2C1 (single isomer, unassigned) [27b]
Could you kindly indicate whether A or B has the higher Percentage inhibition of ligand binding, Adrenergic α1B (0.1 μM) value? // respond with label for picked entry
B
(B: 13%, A: −5%)

FYI, the data here is from patent US20150315188A1.
